Target: T1, full length human TROP2 on 293F-TROP2 cells (human, UniProt P09758 27-323)
T1 construct: also called 293F-TROP2 cells (clone ID #3A8); cell surface TROP2
T1 sequence: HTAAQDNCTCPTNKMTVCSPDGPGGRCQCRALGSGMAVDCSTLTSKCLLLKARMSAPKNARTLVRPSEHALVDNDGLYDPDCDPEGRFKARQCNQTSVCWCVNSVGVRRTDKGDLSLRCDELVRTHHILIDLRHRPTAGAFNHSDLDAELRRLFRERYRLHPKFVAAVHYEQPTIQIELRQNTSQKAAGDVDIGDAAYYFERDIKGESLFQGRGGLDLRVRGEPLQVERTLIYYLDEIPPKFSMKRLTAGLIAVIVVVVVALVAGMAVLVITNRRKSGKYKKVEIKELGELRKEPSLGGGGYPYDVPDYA
Assay: FACS on 293F-TROP2 cells, MFI
property: EC50
Kindly write the number and append the unit.

Incoming: # EC50 lookup, item mouse antibody A1E4F7D4 (antibody, V domains shown, Mouse monoclonal IgG purified from hybridoma supernatant; also called Mouse A1E4F7D4) VH: QVQLQQSGAELAKPGTSVKMSCEASGYSFTTHWIHWMKQRPGQGLEWIGTIFPSNAYAVYNQKFRDRAIMTADRSSTTAYIQLTGLTSEDSAVYYCARASYFDYWGQGTTLTVSS VL: DILLTQSPATLSVSPGERVTFSCRASQNIGTSIHWFQQRTTGSPRLLIKYASESISGIPSRFSGSGSGTDFTLHINSVESEDIAHYYCQHSHSWPFTFGSGTKLEIQ
Outgoing: 1.48 nM
